The reported measurements were obtained from PubChem BioAssay (NCI).

Test system: SF-268 CNS
Experiment: NCI-60 one-dose screen, 48 h (100 = growth as untreated, 0 = no growth, -100 = all killed)
Conditions: 10 µM unless noted
About 83,000 compounds went through this panel and 20% of them were active in at least one assay; those are over-represented in the sample as a whole.
Measured growth values are reported for all entries that follow.
measured.parameter: growth (%)

* Cc1ccc(-c2nc(C#N)c(S(=O)(=O)N(C)CCO)o2)cc1 | 72.6
* NC(N)=NC(N)=Nc1cc2ccccc2c2ccccc12 | 48
* OCCNc1nc(NCCO)nc(Nc2ccc(C3=NN(c4cc(Cl)cc(Cl)c4)C(c4ccccc4)C3)cc2)n1 (stereo not drawn) | 50.8
* C(=C\c1cn(-c2ccccc2)nc1-c1ccccc1)/c1nnc(-c2c[nH]c3ccccc23)o1 | 40.9
* COc1ccccc1-c1ccc2nc(NC(=O)Nc3cc(C(F)(F)F)cc(C(F)(F)F)c3)sc2c1 | 16.8
* O=C(CSC(=S)N1CCCCC1)Nc1ccccc1 | 93.3
* CC(=O)O[C@@H]1C[C@]2(C)[C@H]3[C@H](O)C[C@@H]4C5=CC(C)(C)CC[C@]5(C)CC[C@@]4(C)[C@]3(C)CC[C@H]2C(C)(C)[C@H]1O | 101
* COc1cc(C(=O)Nc2cc(O)c(C/C=C(\C)CCC=C(C)C)c(O)c2)cc2c1O[C@]1(C)CC[C@@H](O)C(C)(C)[C@H]1C2 | 24.8
* CNC(=O)c1cc(Oc2ccc3c(c2)sc2nc(-c4ccc(NC(C)=O)cc4)cn23)ccn1 | 64
* COc1ccc2nc(-c3ccc(Cl)cc3)cc(-c3nnc(SC/C(=N/O)c4ccccc4)o3)c2c1 | 55.3
* CC[C@H](Nc1ncnc2nc[nH]c12)c1nc2cccc(CC(=O)c3ccc(C(=O)NO)cc3)c2c(=O)n1-c1ccccc1 | 83
* CS(=O)(=O)O[C@@H]1C(=O)N(c2cc3c4ccccc4ccc3c3ccccc23)[C@H]1c1ccc(F)cn1 | 43.4
* N#Cc1ccc(C2C3=C(CCCC3=O)OC3=C2C(=O)c2ccccc2C3=O)cc1 (stereo not drawn) | 70.9
* CC(=O)c1ccc(NC(=O)CSc2nnc(-c3cc(-c4ccc(C)cc4)nc4ccccc34)o2)cc1 | 55.2
* C=C(C)[C@@H]1CCC=C2CC[C@]3(C)[C@H](CC[C@@H]4[C@@]5(C)CCCNC(C)(C)[C@@H]5CC[C@]43C)[C@H]21 | 93.1
* O=C(O)COc1ccc2c(=O)c3sc4c(=O)c5ccccc5c(=O)c4c3c(=O)c2c1 | 44.7
* CC(/C=C/c1ccccc1)=N/NC(=O)c1ccncc1 | 102
* Cc1c(Cl)cccc1NC(=O)c1sc2nc3c(cc2c1N)CCCCC3 | 54.2
